Assay: yeast display, Sf9 membrane polyspecificity reagent, FACS + sequencing; frameworks hold sequencing errors

{"residue.string": "QVQLVESGGGLVQAGGSLRLSCAASGFTFRNYAMGWYRQAPGKERELVAAISKSGGSTYYADSVKGRFTISRDNAKNTVYLQMNSLKPEDTAVYYCATDYLYVYGFEYYYWGQGTQVTVSS", "polyreactivity (PSR sort gate)": "high polyreactivity"}
{"residue.string": "QVQLVESGGGLVQAGGSLRLSCAASGRIFGGNTMGWYRQAPGKEREFVAAITQSGTRTYYADSVKGRFTISRDNAKNTVYLQMNSLKPEDTAVYYCAATWRQHPGSMGYWGQGTQVTVSS", "polyreactivity (PSR sort gate)": "high polyreactivity"}
